Test: Solubility test of compounds of formula (I)-(IV) in 4 vehicles (water, SGF, FaSSIF, FeSSIF), HPLC
Type: physicochemical
Details: FaSSIF, pH 6.5, fassif, thermodynamic from solid, vehicle FaSSIF, 4 hours stirring; read-out: Solubility (μg/mL)_4 hours
Description: About 5 mg of the compound of formula (I) was weighed accurately, and placed in a sample bottle. 10 mL of acetonitrile was added. The mixture was sonicated for 5 minutes, cooled to room temperature, and well mixed. Two control sample solutions were prepared in parallel, and labeled as STD-1 and STD-2, respectively. […] The solubility of the compound of formula (I) and its salt in 4 vehicles with different pH were tested. […] The residual solid samples in the lower layer were detected by XRPD. […]
Each record here notes measured solubility at 4 h.
# unit: µg/mL | format: bare number

| SMILES_REPR | MEASURE_NAME | REPORTED_MEASUREMENT |
| --- | --- | --- |
| C[C@@H](Oc1ccc2[nH]nc(/C=C(\F)c3ccc(CNC4CCOCC4)nc3)c2c1)c1c(Cl)cncc1Cl.O=C(O)CC(O)(CC(=O)O)C(=O)O | solubility at 4 h | 910 |
| C[C@@H](Oc1ccc2[nH]nc(/C=C(\F)c3ccc(CNC4CCOCC4)nc3)c2c1)c1c(Cl)cncc1Cl.O=C(O)C[C@H](O)C(=O)O | solubility at 4 h | 1130 |

Recall and state the measured solubility at 4 h for "C[C@@H](Oc1ccc2[nH]nc(/C=C(\F)c3ccc(CNC4CCOCC4)nc3)c2c1)c1c(Cl)cncc1Cl" . 781
